A collection of compounds and their measured pEC50
Target: ERR1 (also known as ERR-α or ERR-1) (Homo sapiens, UniProt P11474)
Sequence (P11474 193-421 limits assumed, species assumed): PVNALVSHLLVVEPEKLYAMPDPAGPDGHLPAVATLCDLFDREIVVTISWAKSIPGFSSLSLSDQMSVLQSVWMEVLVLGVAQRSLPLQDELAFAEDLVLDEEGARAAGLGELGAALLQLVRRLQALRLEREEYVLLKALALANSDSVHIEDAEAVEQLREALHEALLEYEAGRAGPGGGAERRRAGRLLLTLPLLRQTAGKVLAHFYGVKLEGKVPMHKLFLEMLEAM
Test: TR-FRET assay (disruption of co-activator peptide binding to ERR1 LBD)
Conditions: 6 nM 6His-ERR1LBD, 6 nM GST-SRC-2 peptide; average of 3 independent experiments
In plain terms, pEC50 is the concentration in mol/L turned into minus its base-10 logarithm.

Some compounds with recorded pEC50:
>>> print(df.to_string())
                                   compound  parameter_measured  obs_value
0  COCCN1C[C@H](O)C[C@H]1CN1C(=O)S/C(=C\c2ccc3c(cnn3Cc3ccc(Cl)cc3C(F)(F)F)c2)C1=O [Compound 188]               pEC50       7.22
1  COc1ccc(Cn2ncc3cc(/C=C4\SC(=O)N(CCN5CCOCC5)C4=O)ccc32)c(C(F)(F)F)c1 [Compound 8]               pEC50       8.10

Ask | Quick one: pEC50 for CCN1CC[C@@H](N2C(=O)S/C(=C\c3ccc4c(c3)c(C)nn4Cc3ccc(Cl)cc3C(F)(F)F)C2=O)[C@H](F)C1 (relative stereo) [Compound 334] ?
Reply | 7.32

---

Biological target: ERR1 (also known as ERR-α or ERR-1) (Homo sapiens)
Experiment: TR-FRET assay (disruption of co-activator peptide binding to ERR1 LBD)
Settings: 6 nM 6His-ERR1LBD, 6 nM GST-SRC-2 peptide; average of 3 independent experiments
PARAMETER_MEASURED: EC50 (nM)
Answer with a number only, understood to be in nM.

In [3]: df
Out[3]:
                                   molecule                       experimental_system  obs_value
0  NS(=O)(=O)N1CCC(N2C(=O)S/C(=C\c3ccc4c(cnn4Cc4ccc(Cl)cc4C(F)(F)F)c3)C2=O)CC1  ERR1 (also known as ERR-α or ERR-1) (Homo sapiens)         23
1  O=C1S/C(=C\c2ccc3c(cnn3Cc3ccc(Cl)cc3C(F)(F)F)c2)C(=O)N1C1CNC1  ERR1 (also known as ERR-α or ERR-1) (Homo sapiens)         37
2  N#Cc1nn(Cc2ccc(Cl)cc2C(F)(F)F)c2ccc(/C=C3\SC(=O)N(CC(=O)O)C3=O)cc12  ERR1 (also known as ERR-α or ERR-1) (Homo sapiens)         35
3  CS(=O)(=O)NCCN1C(=O)S/C(=C\c2ccc3c(cnn3Cc3ccc(Cl)cc3C(F)(F)F)c2)C1=O [Compound 393]  ERR1 (also known as ERR-α or ERR-1) (Homo sapiens)         32
4  CC(C)C[C@H](N)CN1C(=O)S/C(=C\c2ccc3c(cnn3Cc3ccc(Cl)cc3C(F)(F)F)c2)C1=O  ERR1 (also known as ERR-α or ERR-1) (Homo sapiens)         39
5  O=C1S/C(=C\c2ccc3c(cnn3Cc3ccc(Cl)cc3C(F)(F)F)c2)C(=O)N1C1(C(=O)O)CCCC1  ERR1 (also known as ERR-α or ERR-1) (Homo sapiens)         57
6  CN(C)CCN1C(=O)S/C(=C\c2ccc3c(ccn3Cc3ccc(C#N)cc3C(F)(F)F)c2)C1=O  ERR1 (also known as ERR-α or ERR-1) (Homo sapiens)        500
7  CCOC(=O)C(Cc1ccccn1)N1C(=O)S/C(=C\c2ccc3c(cnn3Cc3ccc(Cl)cc3C(F)(F)F)c2)C1=O (centres unmarked)  ERR1 (also known as ERR-α or ERR-1) (Homo sapiens)         91
8  Cc1nn(Cc2ccc(Cl)cc2C(F)(F)F)c2ccc(/C=C3\SC(=O)N(CC(=O)NS(=O)(=O)N(C)C)C3=O)cc12  ERR1 (also known as ERR-α or ERR-1) (Homo sapiens)         43
9  O=C1S/C(=C\c2ccc3c(cnn3Cc3ccc(Cl)cc3C(F)(F)F)c2)C(=O)N1CCNS(=O)(=O)c1ccccc1  ERR1 (also known as ERR-α or ERR-1) (Homo sapiens)        215

Ask | # lookup: EC50 of O=C1S/C(=C\c2ccc3c(cnn3Cc3ccc(Cl)cc3C(F)(F)F)c2)C(=O)N1Cc1nccn1Cc1ncc[nH]1
Reply | 21

Ask | I am curious: what EC50 value has been reported for [2H]C([2H])([2H])N1CC[C@@H](N2C(=O)S/C(=C\c3ccc4c(cnn4Cc4ccc(C(F)(F)F)cc4C(F)(F)F)c3)C2=O)[C@H](F)C1 (relative stereo) ?
Reply | 91

Ask | Requested field: EC50. Item: CNN1C(=O)S/C(=C\c2ccc3c(cnn3Cc3ccc(Cl)cc3C(F)(F)F)c2)C1=O
Reply | 22

Ask | Reported EC50 for CN(C)S(=O)(=O)NC(=O)CN1C(=O)S/C(=C\c2ccc3c(cnn3Cc3ccc(C(F)(F)F)cc3C(F)(F)F)c2)C1=O : what is it?
Reply | 134
